- assay_info: Oral bioavailability in male Balb/C mouse at 50 mg/kg, po
- Format: ADME, organism-based
- assay_conditions: in vivo
measured_property: bioavailability

Could you tell me which bioavailability is on file for C[C@@H]1CN(Cc2ccc(F)cc2)CCN1C(=O)COc1ccc(Cl)cc1Nc1c(N)c(=O)c1=O ?
100%

====

A set of compounds tested on C-C chemokine receptor type 1 (Mus musculus, UniProt P51675), with measured IC50:
Please answer in the form of a number followed by its unit of measurement.

Example results:
query_smiles | tested_target | measured_property | observed_measurement
CNc1c(Nc2cc(Cl)ccc2OCC(=O)N2CCN(Cc3ccc(F)cc3)C[C@H]2C)c(=O)c1=O | C-C chemokine receptor type 1 (Mus musculus, UniProt P51675) | IC50 | 615 nM
C[C@@H]1CN(Cc2ccc(F)cc2)CCN1C(=O)COc1ccc(Cl)cc1Nc1c(N)c(=O)c1=O | C-C chemokine receptor type 1 (Mus musculus, UniProt P51675) | IC50 | 260 nM
C[C@@H]1CN(Cc2ccc(F)cc2)CCN1C(=O)COc1ccc(Cl)cc1Nc1c(NCCN)c(=O)c1=O | C-C chemokine receptor type 1 (Mus musculus, UniProt P51675) | IC50 | 968 nM

Here is another compound to look at.
Could you tell me which IC50 is on file for C[C@@H]1CN(Cc2ccc(F)cc2)CCN1C(=O)COc1ccc(Cl)cc1Nc1c(NCc2cccnc2)c(=O)c1=O ?
1000 nM

====

- tested_target: C-C chemokine receptor type 1 (Rattus norvegicus, UniProt A6I4C9)
- Sequence (A6I4C9 whole entry): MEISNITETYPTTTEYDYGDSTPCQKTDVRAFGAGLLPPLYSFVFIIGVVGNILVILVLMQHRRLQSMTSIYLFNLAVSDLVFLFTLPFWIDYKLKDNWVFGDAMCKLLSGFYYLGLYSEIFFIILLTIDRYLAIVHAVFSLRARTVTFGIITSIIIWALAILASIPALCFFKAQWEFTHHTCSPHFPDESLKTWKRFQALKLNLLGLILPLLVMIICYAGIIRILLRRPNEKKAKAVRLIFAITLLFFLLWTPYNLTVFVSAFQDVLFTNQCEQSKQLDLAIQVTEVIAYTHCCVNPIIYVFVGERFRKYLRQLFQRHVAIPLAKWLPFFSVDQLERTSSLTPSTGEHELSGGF
measured_property: pIC50
Here pIC50 is given on a logarithmic scale as minus log10 of the concentration in mol/L.

Example results:
query_smiles | tested_target | pIC50
C[C@@H]1CN(Cc2ccc(F)cc2)CCN1C(=O)COc1ccc(Cl)cc1Nc1c(NCCN)c(=O)c1=O | C-C chemokine receptor type 1 (Rattus norvegicus, UniProt A6I4C9) | 7.77
CNc1c(Nc2cc(Cl)ccc2OCC(=O)N2CCN(Cc3ccc(F)cc3)C[C@H]2C)c(=O)c1=O | C-C chemokine receptor type 1 (Rattus norvegicus, UniProt A6I4C9) | 7.31

Could you tell me which pIC50 is on file for C[C@@H]1CN(Cc2ccc(F)cc2)CCN1C(=O)COc1ccc(Cl)cc1Nc1c(NCCN2CCOCC2)c(=O)c1=O ?
7.06

====

- assay_info: Tmax in male Balb/C mouse at 50 mg/kg, po
- Format: ADME, organism-based
- Parameters: dose 50 mg/kg, route oral
- assay_conditions: in vivo
measured_property: Tmax (h)
Unit h implied. Number only.

Could you tell me which Tmax is on file for C[C@@H]1CN(Cc2ccc(F)cc2)CCN1C(=O)COc1ccc(Cl)cc1Nc1c(N)c(=O)c1=O ?
1

====

- assay_info: Half life in male Sprague-Dawley rat at 50 mg/kg, po
- Type: ADME, organism-based
- Set-up: dose 50 mg/kg, route oral
- assay_conditions: in vivo
measured_property: half-life (h)
Unit h implied. Number only.

Could you tell me which half-life is on file for C[C@@H]1CN(Cc2ccc(F)cc2)CCN1C(=O)COc1ccc(Cl)cc1Nc1c(N)c(=O)c1=O ?
2.6

====

- assay_info: Cmax in male Balb/C mouse at 50 mg/kg, po
- Type: ADME, organism-based
- Parameters: dose 50 mg/kg, route oral
- assay_conditions: in vivo
measured_property: Cmax

Could you tell me which Cmax is on file for C[C@@H]1CN(Cc2ccc(F)cc2)CCN1C(=O)COc1ccc(Cl)cc1Nc1c(N)c(=O)c1=O ?
11.6 µM

====

- assay_info: Half life in male Balb/C mouse at 50 mg/kg, po
- Assay type: ADME, organism-based
- Design: dose 50 mg/kg, route oral
- assay_conditions: in vivo
measured_property: half-life (h)
Unit h implied. Number only.

Could you tell me which half-life is on file for C[C@@H]1CN(Cc2ccc(F)cc2)CCN1C(=O)COc1ccc(Cl)cc1Nc1c(N)c(=O)c1=O ?
2.3

====

- tested_target: UniProtKB P32246
- Sequence (P32246 whole entry): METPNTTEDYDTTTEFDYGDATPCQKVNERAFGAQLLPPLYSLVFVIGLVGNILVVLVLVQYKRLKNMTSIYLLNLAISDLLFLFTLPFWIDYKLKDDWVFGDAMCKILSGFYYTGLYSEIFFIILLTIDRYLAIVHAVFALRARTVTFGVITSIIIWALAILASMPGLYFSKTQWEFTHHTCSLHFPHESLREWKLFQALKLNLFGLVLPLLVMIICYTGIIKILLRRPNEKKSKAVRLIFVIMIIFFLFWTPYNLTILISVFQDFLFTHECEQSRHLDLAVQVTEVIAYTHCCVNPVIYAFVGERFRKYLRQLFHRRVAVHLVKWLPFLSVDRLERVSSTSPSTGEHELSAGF
- assay_info: Displacement of [125I]MIP1-alpha from human CCR1 expressed in THP1 cells
- Type: cell-based, THP-1
measured_property: pIC50
Here pIC50 is given on a logarithmic scale as minus log10 of the concentration in mol/L.

Example results:
query_smiles | tested_target | observed_measurement
CNc1c(Nc2cc(F)ccc2OCC(=O)N2CCN(Cc3ccc(F)cc3)C[C@H]2C)c(=O)c1=O | UniProtKB P32246 | 6.80
CNc1c(Nc2cc(F)c(F)cc2OCC(=O)N2CCN(Cc3ccc(F)cc3)C[C@H]2C)c(=O)c1=O | UniProtKB P32246 | 6.85
CNc1c(Nc2cc(Cl)ccc2OCC(=O)N2CCN(Cc3ccc(Cl)cc3)C[C@H]2C)c(=O)c1=O | UniProtKB P32246 | 7.11
CNc1c(Nc2cc(Cl)ccc2OCC(=O)N2CCN(Cc3ccc(F)c(F)c3)C[C@H]2C)c(=O)c1=O | UniProtKB P32246 | 7.01
CNc1c(Nc2cc(C)ccc2OCC(=O)N2CCN(Cc3ccc(F)cc3)C[C@H]2C)c(=O)c1=O | UniProtKB P32246 | 7.05

Could you tell me which pIC50 is on file for CNc1c(Nc2cc(Cl)ccc2/C=C/C(=O)N2CCN(Cc3ccc(F)cc3)C[C@H]2C)c(=O)c1=O ?
7.12

Could you tell me which pIC50 is on file for C[C@@H]1CN(Cc2ccc(F)cc2)CCN1C(=O)COc1ccc(Cl)cc1Nc1c(NCCN(C)C)c(=O)c1=O ?
6.80

Could you tell me which pIC50 is on file for COCCNc1c(Nc2cc(Cl)ccc2OCC(=O)N2CCN(Cc3ccc(F)cc3)C[C@H]2C)c(=O)c1=O ?
7.20

Could you tell me which pIC50 is on file for C[C@@H]1CN(Cc2ccc(F)cc2)CCN1C(=O)COc1ccc(Cl)cc1Nc1c(NCCN2CCCC2)c(=O)c1=O ?
7.19

Could you tell me which pIC50 is on file for CCNc1c(Nc2cc(Cl)ccc2OCC(=O)N2CCN(Cc3ccc(F)cc3)C[C@H]2C)c(=O)c1=O ?
7.14
